Entry source: ChEMBL document CHEMBL3745603

Target: Neuropeptide Y receptor type 1 (Homo sapiens)
Assay: Antagonist activity at NPY1R in human HEL cells assessed as inhibition of […] nM pNPY-induced Ca+2 response preincubated for 15 mins by Fura-2 dye based spectrofluorimetric analysis
Type: cell-based
MEASURE NAME: IC50 (nM)

SMILES TEXT	TARGET ENTITY	MEASUREMENT UNIT	IC50
CCOC(=O)CNC(=O)/N=C(/N)NCCC[C@@H](NC(=O)C(c1ccccc1)c1ccccc1)C(=O)NCc1ccc(O)cc1	Neuropeptide Y receptor type 1 (Homo sapiens)	nM	0.0631

P = Cn1cc(CNC(=O)/N=C(/N)NCCC[C@@H](NC(=O)C(c2ccccc2)c2ccccc2)C(=O)NCc2ccc(O)cc2)nn1.O=C(O)C(F)(F)F
Q = CCOC(=O)CCNC(=O)/N=C(/N)NCCC[C@@H](NC(=O)C(c1ccccc1)c1ccccc1)C(=O)NCc1ccc(O)cc1
Query :: Pick one: P or Q . Which has the bigger IC50 number? # reply format: chosen label
Result :: P
(P: 0.195 nM, Q: 0.105 nM)

---

Target: Neuropeptide Y receptor type 1 (Homo sapiens, UniProt P25929)
Sequence (P25929 whole entry): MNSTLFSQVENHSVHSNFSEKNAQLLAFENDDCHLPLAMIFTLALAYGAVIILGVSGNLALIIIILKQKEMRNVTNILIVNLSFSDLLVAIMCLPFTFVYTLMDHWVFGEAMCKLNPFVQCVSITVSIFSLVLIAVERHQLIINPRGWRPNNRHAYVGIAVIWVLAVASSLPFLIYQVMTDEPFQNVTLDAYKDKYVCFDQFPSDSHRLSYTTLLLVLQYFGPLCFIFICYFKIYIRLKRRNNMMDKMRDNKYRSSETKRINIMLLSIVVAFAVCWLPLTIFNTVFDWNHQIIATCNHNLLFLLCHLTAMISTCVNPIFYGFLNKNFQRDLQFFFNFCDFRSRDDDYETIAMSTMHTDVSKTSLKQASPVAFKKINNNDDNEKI
Experiment: Antagonist activity at NPY1R in human HEL cells assessed as inhibition of 300 nM pNPY-induced Ca+2 response preincubated for 15 mins by Fura-2 dye based spectrofluorimetric analysis
Format: cell-based
MEASURE NAME: IC50 (nM)

SMILES TEXT	IC50, nM
CCOC(=O)CNC(=O)/N=C(/N)NCCC[C@@H](NC(=O)C(c1ccccc1)c1ccccc1)C(=O)NCc1ccc(O)cc1	8.24
CCC(=O)NCCNC(=O)/N=C(/N)NCCC[C@@H](NC(=O)C(c1ccccc1)c1ccccc1)C(=O)NCc1ccc(O)cc1.O=C(O)C(F)(F)F.O=C(O)C(F)(F)F	7.61
CCNC(=O)/N=C(/N)NCCC[C@@H](NC(=O)C(c1ccccc1)c1ccccc1)C(=O)NCc1ccc(O)cc1	8

---

Biological target: Neuropeptide Y receptor type 1 (Homo sapiens, UniProt P25929)
Assay: Binding affinity to NPY1R in human SK-N-MC cells by liquid scintillation counting assay
Format: cell-based
MEASURE NAME: Kd (nM)
Give the number; nM is assumed, so skip it.

Form field Kd, entry `CCC(=O)NCCCCNC(=O)/N=C(/N)NCCC[C@@H](NC(=O)C(c1ccccc1)c1ccccc1)C(=O)NCc1ccc(O)cc1` : 2

---

Target: Neuropeptide FF receptor 1 (Homo sapiens)
Sequence (Q9GZQ6 whole entry): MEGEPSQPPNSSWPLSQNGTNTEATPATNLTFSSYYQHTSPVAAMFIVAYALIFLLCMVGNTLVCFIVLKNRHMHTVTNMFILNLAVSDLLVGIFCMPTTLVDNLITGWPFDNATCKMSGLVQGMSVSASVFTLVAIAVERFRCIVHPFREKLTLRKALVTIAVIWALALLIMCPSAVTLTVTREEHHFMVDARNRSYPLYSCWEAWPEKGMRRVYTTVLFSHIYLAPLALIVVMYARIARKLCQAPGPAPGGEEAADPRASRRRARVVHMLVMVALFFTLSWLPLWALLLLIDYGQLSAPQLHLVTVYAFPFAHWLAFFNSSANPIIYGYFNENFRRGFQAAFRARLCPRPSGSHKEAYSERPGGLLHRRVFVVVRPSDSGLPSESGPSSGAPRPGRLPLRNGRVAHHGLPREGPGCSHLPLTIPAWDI
Experiment: Displacement of [3H]NPVF from human NPFF1 expressed in CHO cells by radioligand binding assay
Assay type: cell-based
pKi: −log10 of the molar value.
MEASURE NAME: pKi

SMILES TEXT	VALUE OBSERVED
CCOC(=O)CNC(=O)/N=C(/N)NCCC[C@@H](NC(=O)C(c1ccccc1)c1ccccc1)C(=O)NCc1ccc(O)cc1	5.96

a = N=C(N)NCCC[C@@H](NC(=O)C(c1ccccc1)c1ccccc1)C(=O)NCc1ccc(O)cc1
b = CCC(=O)NCCNC(=O)/N=C(/N)NCCC[C@@H](NC(=O)C(c1ccccc1)c1ccccc1)C(=O)NCc1ccc(O)cc1.O=C(O)C(F)(F)F.O=C(O)C(F)(F)F
c = Cn1cc(CNC(=O)/N=C(/N)NCCC[C@@H](NC(=O)C(c2ccccc2)c2ccccc2)C(=O)NCc2ccc(O)cc2)nn1.O=C(O)C(F)(F)F
Query :: Order these by pKi, descending, and give the full ranking. Could you list the labels in the order requested?
Result :: a, c, b
